// provenance: patent US20070032418A1

Target: angiogenin (ANG) (Homo sapiens, UniProt P03950)
Sequence (P03950 25-147): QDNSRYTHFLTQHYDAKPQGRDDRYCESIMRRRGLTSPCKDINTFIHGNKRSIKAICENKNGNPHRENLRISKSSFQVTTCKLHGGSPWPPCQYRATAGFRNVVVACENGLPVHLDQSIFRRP
Test: Inhibition of ANG ribonucleolytic activity, HPLC assay of oligonucleotide cleavage
Assay type: biochemical
Settings: 20 mM Hepes, 100 mM NaCl, pH 7.0, 37° C.; read-out: Ki for inhibition of the ribonucleolytic activity of angiogenin
Protocol: Reaction mixtures with and without test compounds were chromatographed on a Mono Q anion-exchange column with an NaCl gradient in 10 mM Tris, pH 8. […] This information was used to calculate kcat/Km values, which were then fitted to the equation (kcat/Km)i=(kcat/Km)0/[…], where (kcat/Km)i and (kcat/Km)0 are defined as the values in the presence and absence of inhibitor, respectively, and [I] is defined as the inhibitor concentration. […]
pKi: −log10 of the molar value.
Readout Type: pKi

Observe how each entry below is paired with its result.
Compound | pKi
O=C(c1ccc(C(=O)O)c(NC(=O)c2cccc3ccccc23)c1)c1ccc(C(=O)O)c(NC(=O)c2cccc3ccccc23)c1 [CB-181431] | 4.39
O=C(Nc1ccc(Cc2ccc(NC(=O)c3cccc([N+](=O)[O-])c3)c(C(=O)O)c2)cc1C(=O)O)c1cccc([N+](=O)[O-])c1 [CB-467929] | 4.62

I: O=C(Nc1ccc(Cc2ccc(NC(=O)c3ccc(-c4ccccc4)cc3)c(C(=O)O)c2)cc1C(=O)O)c1ccc(-c2ccccc2)cc1 [CB-473872]
II: Nc1ccc(/N=N/c2ccc(-c3ccc(O)cc3)cc2)c2ccc(S(=O)(=O)O)cc12 [NCI-65828]
Query :: Pick one, I or II : lowest reported pKi. // return label of chosen record
Result :: II
(II: 4.09, I: 4.70)

---

Molecular target: angiogenin (ANG) (Homo sapiens, UniProt P03950)
Assay: Inhibition of ANG ribonucleolytic activity, HPLC assay of oligonucleotide cleavage
Format: biochemical
Settings: read-out: KI
Readout Type: Ki (µM)

a: O=C(Nc1ccc(/C=C/c2ccc(NC(=O)c3cc(S(=O)(=O)O)c4ccncc4c3O)cc2S(=O)(=O)O)c(S(=O)(=O)O)c1)c1cc(S(=O)(=O)O)c2ccncc2c1O
b: Cc1cc(/N=N/c2ccc(/N=N/c3c(O)c(S(=O)(=O)O)cc4cc(S(=O)(=O)O)ccc34)cc2C)ccc1/N=N/c1ccc2cc(S(=O)(=O)O)cc(S(=O)(=O)O)c2c1
c: O=S(=O)(O)c1cc(O)c2ccc(Nc3ccc4c(O)cc(S(=O)(=O)O)cc4c3)cc2c1
d: Nc1ccc(C(=O)Nc2cc(S(=O)(=O)O)cc3cccc(O)c23)cc1
e: O=C(Nc1ccc2cc(S(=O)(=O)O)cc(S(=O)(=O)O)c2c1)Nc1ccc2cc(S(=O)(=O)O)cc(S(=O)(=O)O)c2c1
Query :: Sort by Ki, descending. Give the order by naming the labels one after another as requested.
Result :: e, c, d, b, a
(e: 336 µM, c: 172 µM, d: 104 µM, b: 38 µM, a: 5 µM)

I: O=[N+]([O-])c1cccc(/N=N/c2c(O)c(S(=O)(=O)O)cc3cc(S(=O)(=O)O)ccc23)c1
II: COc1cc(/N=N/c2ccc(S(=O)(=O)O)cc2)ccc1/N=N/c1c(O)ccc2cc(S(=O)(=O)O)ccc12
Query :: Pick one, I or II : lowest reported Ki. // return label of chosen record
Result :: II
(II: 29 µM, I: 244 µM)
